# Test system: B6C3F1 mice, B16 melanoma ip, median survival T/C
# protocolNotes: NCI In Vivo Anticancer Drug Screen. Data for tumor model B16 Melanoma (intraperitoneal) in B6C3F1 mice
# particulars: endpoint: median survival time; dose: 25.0 mg/kg/injection; schedule: Q01DX009 (ip); vehicle: saline with Tween-80; higher = longer survival
Inconclusive results and toxic doses are left out.
observationType: T/C

// query Field request: T/C | item: O=C(NC(CO)C(=O)O)OCc1ccccc1 (stereo not drawn)
// result 97 % of control

// query Field request: T/C | item: O=C1O/C(=C2\OCc3ccccc32)c2ccccc21
// result 115 % of control

// query Field request: T/C | item: COc1ccc(S(=O)(=O)N=N/C=C2\C=CC=CN2O)cc1OC
// result 123 % of control

// query Field request: T/C | item: O=C(CCCCCCC(=O)ON1C(=O)CCC1=O)ON1C(=O)CCC1=O
// result 99 % of control

// query Field request: T/C | item: Nc1nc(N)c(N=O)c(Nc2ccc(Br)cc2)n1
// result 114 % of control

// query Field request: T/C | item: N=c1c(C(=O)OCc2ccccc2)ncc(CCl)n1O
// result 94 % of control

// query Field request: T/C | item: C=CCNc1nc2c(s1)CCc1cc(OC)c(OC)cc1-2
// result 116 % of control

// query Field request: T/C | item: CCN1CSC(=S)N(CC)C1
// result 94 % of control

// query Field request: T/C | item: CC1(C)COCN1COC1CCCCC1
// result 102 % of control

// query Field request: T/C | item: O=C(CN1CCOCC1)Nc1nc(-c2ccc(Cl)cc2)cs1
// result 94 % of control

// query Field request: T/C | item: CCOC(=O)c1[nH]c2cccc3c2c1CC(Br)C3=O (stereo not drawn)
// result 93 % of control

// query Field request: T/C | item: O=C(Nc1ccc(C2=NCCN2)cc1)c1ccc(C(=O)Nc2ccc(C3=NCCN3)cc2)c(Cl)c1
// result 110 % of control

// query Field request: T/C | item: Clc1ccc2nnnn2n1
// result 105 % of control

----------
# Test system: B6C3F1 mice, B16 melanoma ip, median survival T/C
# protocolNotes: NCI In Vivo Anticancer Drug Screen. Data for tumor model B16 Melanoma (intraperitoneal) in B6C3F1 mice
# particulars: endpoint: median survival time; dose: 6.0 mg/kg/injection; schedule: Q01DX009 (ip); vehicle: saline
Inconclusive results and toxic doses are left out. Rule for the calls: active = survival T/C of 150% or more; inactive = T/C below 125% in these data.
Assign a class; possible classes are active, inactive

// query I'd appreciate the recorded outcome for Nc1ncn(C2OC(CO)C(O)C2O)c(=O)n1 (stereo not given) from this test.
// result inactive

// query I'd appreciate the recorded outcome for COc1cccc2c1C(=O)c1c(O)c3c(c(O)c1C2=O)C[C@@](O)(/C(C)=N\O)C[C@@H]3OC1CC(N)C(O)C(C)O1 (stereo not given in full) from this test.
// result active

// query I'd appreciate the recorded outcome for [N-]=[N+]=[N-] from this test.
// result inactive

// query I'd appreciate the recorded outcome for ClCC[Se](Cl)(Cl)c1ccccc1 from this test.
// result inactive

// query I'd appreciate the recorded outcome for O=c1[nH]cnc2c1ccn2C1OC(CO)C(O)C1O (stereo not given) from this test.
// result inactive

----------
# System: B6C3F1 mice, B16 melanoma ip, median survival T/C
# protocolNotes: NCI In Vivo Anticancer Drug Screen. Data for tumor model B16 Melanoma (intraperitoneal) in B6C3F1 mice
# particulars: endpoint: median survival time; dose: 25.0 mg/kg/injection; schedule: Q01DX009 (ip); vehicle: saline with Tween-80; higher = longer survival
Toxic doses and inconclusive results are not listed.
observationType: T/C

// query Field request: T/C | item: S=C(S)N1CCCNCC1 (tested in a mixture with another compound)
// result 100 % of control

// query Field request: T/C | item: COc1cc(OC)c(NC(=O)ON2C(=O)c3ccccc3C2=O)cc1Cl
// result 96 % of control

// query Field request: T/C | item: CC(=S)NC(O)C(=O)c1ccccc1 (stereo not drawn)
// result 94 % of control

// query Field request: T/C | item: O=C1c2ccccc2C(Cl)(c2ccc(Cl)cc2)c2ccc(Cl)cc21 (stereo not drawn)
// result 114 % of control

// query Field request: T/C | item: CC(C#N)(C#N)N=Nc1ccc(Cl)cc1Cl
// result 95 % of control

// query Field request: T/C | item: CN=S(=O)(OCCCCCOS(=O)(=NC)c1ccc(C)cc1)c1ccc(C)cc1 (stereo not drawn)
// result 104 % of control

// query Field request: T/C | item: CCCCC(=O)OCC1OC(n2cnc3c(=S)nc[nH]c32)C(OC(=O)CCCC)C1OC(=O)CCCC (stereo not drawn)
// result 108 % of control

// query Field request: T/C | item: COc1cccc(C2NC(=O)c3c(n[nH]c3N)S2)c1O (stereo not drawn)
// result 106 % of control

// query Field request: T/C | item: CC1c2ccccc2CC(CCN(C)C)c2ccccc21 (stereo not drawn)
// result 99 % of control

// query Field request: T/C | item: c1ccc(P(CCNCCP(c2ccccc2)c2ccccc2)c2ccccc2)cc1
// result 113 % of control

// query Field request: T/C | item: Clc1ccccc1N1CCN(CCCN2CCN(c3ccccc3Cl)CC2)CC1
// result 99 % of control

// query Field request: T/C | item: CC1(C)CC1(Br)Br
// result 104 % of control

// query Field request: T/C | item: N#Cc1nc(C#N)c(Sc2ccccc2)c(Sc2ccccc2)c1Sc1ccccc1
// result 101 % of control

// query Field request: T/C | item: O=S(=O)(c1ccccc1)N1CN2CCN(C2)C1
// result 94 % of control

// query Field request: T/C | item: CN=S(=O)(OCCCCCOS(=O)(=NC)c1ccccc1)c1ccccc1 (stereo not drawn)
// result 119 % of control

// query Field request: T/C | item: ClC1(Cl)Cc2ccccc21
// result 122 % of control

// query Field request: T/C | item: O=[n+]1c2ccccc2n([O-])c2cc(Cl)ccc21
// result 109 % of control

// query Field request: T/C | item: NC(=O)c1cc(Cl)nc2nc(Cl)nc(N)c12
// result 92 % of control

// query Field request: T/C | item: Cn1cnc([N+](=O)[O-])c1SCC(=O)O
// result 89 % of control

// query Field request: T/C | item: CCCCCCCCCCCCCCCCNc1cccc2ccccc12
// result 95 % of control

// query Field request: T/C | item: Brc1ccc(C[N+]23CN4CN(CN(C4)C2)C3)cc1
// result 98 % of control

// query Field request: T/C | item: CCCCCCCCCCCCCC#CC(=O)O
// result 89 % of control

// query Field request: T/C | item: CCCCCC#CC1OC12CCCCC2 (stereo not drawn)
// result 100 % of control

// query Field request: T/C | item: O=C(N/N=C/c1cccc(O)c1O)N/N=C/c1cccc(O)c1O
// result 112 % of control

// query Field request: T/C | item: CC1(C)OC1CS(=O)c1ccccc1 (stereo not drawn)
// result 99 % of control

// query Field request: T/C | item: O=C(O)C1Cc2nc[nH]c2CN1CO (stereo not drawn)
// result 102 % of control

// query Field request: T/C | item: COc1ccc(/C=C/C(=O)c2cc(C(=O)O)c(OC)cc2OC)cc1OC
// result 94 % of control

// query Field request: T/C | item: CC(=O)Oc1c[nH]c(=O)[nH]c1=O
// result 98 % of control

----------
# Test system: B6C3F1 mice, B16 melanoma ip, median survival T/C
# protocolNotes: NCI In Vivo Anticancer Drug Screen. Data for tumor model B16 Melanoma (intraperitoneal) in B6C3F1 mice
# particulars: endpoint: median survival time; dose: 50.0 mg/kg/injection; schedule: Q01DX009 (ip); vehicle: suspension in saline
Inconclusive results and toxic doses are left out. Rule for the calls: active = survival T/C of 150% or more; inactive = T/C below 125% in these data.
Assign a class; possible classes are y = active, n = inactive

// query I'd appreciate the recorded outcome for N[C@@H](Cc1ccc(O)c(O)c1)C(=O)O from this test.
// result n

// query I'd appreciate the recorded outcome for O=C(CNC(=O)OCc1ccccc1)NCC(=O)NC(Cc1c[nH]c2ccccc12)C(=O)O (centres undefined) from this test.
// result n

// query I'd appreciate the recorded outcome for O=C1N(CC2CO2)CCN1CC1CO1 (centres undefined) from this test.
// result y

// query I'd appreciate the recorded outcome for C1CNCCN1 from this test.
// result n

// query I'd appreciate the recorded outcome for CS(=O)(=O)Nc1ccc(C(=O)CCN2CCCCCC2)cc1 from this test.
// result n

// query I'd appreciate the recorded outcome for CCN(CC)CCC(=O)c1ccccc1 from this test.
// result n

// query I'd appreciate the recorded outcome for O=c1c(O)c(-c2ccc(O)c(O)c2)oc2cc(O)cc(O)c12 from this test.
// result n

// query I'd appreciate the recorded outcome for Nc1nc(F)nc2c1ncn2C1OC(COP(=O)(O)O)C(O)C1O (centres undefined) from this test.
// result n

// query I'd appreciate the recorded outcome for Cn1nnc2c(C(N)=O)ncn2c1=O from this test.
// result y
